- System: male ICR mice
- PROTOCOL_DESCRIPTION: scPTZ test (subcutaneous pentylenetetrazol-induced clonic seizure), intraperitoneal administration, mice
- Format: in vivo
- MEASUREMENT_CONTEXT: Mus musculus; mice, ip, at peak time; read-out: ScPTZ test(ip) ED50
ASSAY_METRIC: ED50 (mg/kg)

>  <COMPOUND>
C[C@H](OC(N)=O)[C@@H](O)c1c(Cl)cccc1Cl

>  <ENDPOINT_UNIT>
mg/kg

>  <MEASUREMENT>
25.7

$$$$
>  <COMPOUND>
C[C@@H](OC(N)=O)[C@H](O)c1ccccc1Cl

>  <ENDPOINT_UNIT>
mg/kg

>  <MEASUREMENT>
38.8

$$$$
>  <COMPOUND>
CC[C@H](OC(N)=O)[C@@H](O)c1ccc(Cl)cc1Cl

>  <ENDPOINT_UNIT>
mg/kg

>  <MEASUREMENT>
24.3

$$$$
>  <COMPOUND>
C[C@H](OC(N)=O)[C@@H](O)c1ccccc1Cl

>  <ENDPOINT_UNIT>
mg/kg

>  <MEASUREMENT>
15.8

$$$$
>  <COMPOUND>
CC(OC(N)=O)C(O)c1ccccc1Cl (racemic)

>  <ENDPOINT_UNIT>
mg/kg

>  <MEASUREMENT>
15.3

$$$$
>  <COMPOUND>
C[C@H](OC(N)=O)[C@H](O)c1ccccc1Cl

>  <ENDPOINT_UNIT>
mg/kg

>  <MEASUREMENT>
15

$$$$
>  <COMPOUND>
CC[C@H](OC(N)=O)[C@@H](O)c1ccccc1Cl

>  <ENDPOINT_UNIT>
mg/kg

>  <MEASUREMENT>
17.9

$$$$
